# System: CAL-148
# Procedure text: drug sensitivity score (DSS), CellTiter-Blue viability (DSS (AUC-based score)); higher = stronger viability inhibition; extreme values may be limits of the assay
# Measurement parameters: incubation time: 72 h
Quantity measured: drug sensitivity score
A bare number is all that is needed in reply.

Illustrative cases are given below, each with its answer.
• Nc1nc2[nH]cc(CCc3ccc(C(=O)N[C@@H](CCC(=O)O)C(=O)O)cc3)c2c(=O)[nH]1 = 0
• COc1cc2c(Oc3ccc4[nH]c(C)cc4c3F)ncnc2cc1OCCCN1CCCC1 = 0
• Cc1cnc(NC(=O)Nc2cc(Br)c(C)cc2OC[C@@H]2CNCCO2)cn1 = 0

Continue with the next molecule.
Inquiry: For the molecule shown here, CC[C@@H]1C(=O)N(C)c2cnc(Nc3ccc(C(=O)NC4CCN(C)CC4)cc3OC)nc2N1C1CCCC1 , give the reported drug sensitivity score.
Reply text: 19.7

----------
Measured normalised response of individual entries
# Tested on: MDA-MB-231
# Procedure text: normalised response (% of control), CellTiter-Glo; higher = more viable cells (100 = DMSO, 0 = benzethonium chloride kill control)
# Measurement parameters: incubation time: 72 h
All answers are understood in %, so give the number only.

In the examples that follow, each entry is paired with its recorded normalised response.
- C=CC(=O)N1CCC[C@@H](n2nc(-c3ccc(Oc4ccccc4)cc3)c3c(N)ncnc32)C1 [Ibrutinib] (100 nM): 105
- O=C(/C=C/c1cccnc1)NCCCCC1CCN(C(=O)c2ccccc2)CC1 [Daporinad] (0.1 nM): 101
- O=C(O)C1(C(=O)O)CCC1.[NH2-].[NH2-].[Pt+2] [Carboplatin] (1000 nM): 94.4
- CCN(CC)CCCC(C)Nc1c2ccc(Cl)cc2nc2ccc(OC)cc12 (configuration not stated) [Mepacrine] (50 nM): 94
- Nc1ncn([C@H]2C[C@H](O)[C@@H](CO)O2)c(=O)n1 [Decitabine] (1000 nM): 98.4

Inquiry: Give its normalised response value. Item: CC(=O)Nc1cccc(-n2c(=O)n(C3CC3)c(=O)c3c(Nc4ccc(I)cc4F)n(C)c(=O)c(C)c32)c1 [Trametinib] (0.025 nM)
Reply text: 104

Inquiry: Item CCCS(=O)(=O)Nc1ccc(F)c(C(=O)c2c[nH]c3ncc(-c4ccc(Cl)cc4)cc23)c1F [Vemurafenib] (1000 nM) has what recorded normalised response?
Reply text: 94.3

----------
normalised viability reference
# Tested on: MFM-223
# Procedure text: normalised viability (% of control), CellTiter-Blue; higher = more viable cells (about 100 = DMSO control)
# Measurement parameters: 1000 nM; incubation time: 72 h
Kindly provide the numeric value in % only, without the unit symbol.

Guide cases for normalised viability, answers given:
* Nc1ccccc1NC(=O)c1ccc(CNC(=O)OCc2cccnc2)cc1 [Entinostat] | 93.6
* CC[C@@H]1C(=O)N(C)c2cnc(Nc3ccc(C(=O)NC4CCN(C)CC4)cc3OC)nc2N1C1CCCC1 [BI 2536] | 48.5
* Oc1ncc(N(CCCl)CCCl)c(O)n1 [Uracil mustard] | 95.9
* CCc1cncnc1N1CCN(Cc2nc3ccc(C(F)(F)F)cc3[nH]2)CC1 | 122
* CCCS(=O)(=O)Nc1ccc(F)c(C(=O)c2c[nH]c3ncc(-c4ccc(Cl)cc4)cc23)c1F [Vemurafenib] | 95.4
* Nc1nc2[nH]cc(CCc3ccc(C(=O)N[C@@H](CCC(=O)O)C(=O)O)cc3)c2c(=O)[nH]1 [Pemetrexed] | 101

Next item in the queue.
Inquiry: Return reported normalised viability; argument: N#Cc1ccc(C(c2ccc(C#N)cc2)n2cncn2)cc1 [Letrozole]
Reply text: 70.5

----------
# System: MDA-MB-231
# Procedure text: normalised viability (% of control), CellTiter-Blue; higher = more viable cells (about 100 = DMSO control)
# Measurement parameters: 10 nM; incubation time: 72 h
Quantity measured: normalised viability (%)
API: value field is a number in %; no unit string.

Completed entries (count: 5):
- CC[C@H](Nc1ncnc2[nH]cnc12)c1nc2cccc(F)c2c(=O)n1-c1ccccc1: 89.9
- CCCCC(=O)OCC(=O)[C@]1(O)Cc2c(O)c3c(c(O)c2[C@@H](O[C@H]2C[C@H](NC(=O)C(F)(F)F)[C@H](O)[C@H](C)O2)C1)C(=O)c1c(OC)cccc1C3=O: 84.8
- O=C(Cc1ccc(-c2ccc(OCCN3CCOCC3)cc2)cn1)NCc1ccccc1: 98.1
- Nc1ccccc1NC(=O)c1ccc(CNC(=O)OCc2cccnc2)cc1: 99.2
- C1CN1c1nc(N2CC2)nc(N2CC2)n1: 104

# next compound below
Inquiry: So what does the record say about normalised viability for NCCCNCCSP(=O)(O)O ?
Reply text: 86.7

----------
# Tested on: HDQ-P1
# Procedure text: normalised viability (% of control), CellTiter-Blue; higher = more viable cells (about 100 = DMSO control)
# Measurement parameters: 100 nM; incubation time: 72 h
Quantity measured: normalised viability (%)
// units = %; emit number, no label

* O=C(Cc1ccc(-c2ccc(OCCN3CCOCC3)cc2)cn1)NCc1ccccc1 [KX2-391] | 43.2
* CC1=C(/C=C/C(C)=C/C=C/C(C)=C/C(=O)O)C(C)(C)CCC1 [Tretinoin] | 107

Inquiry: Form field: reported normalised viability of NCCCNCCSP(=O)(O)O [Amifostine]
Reply text: 84.8

Inquiry: Item under review: O=C(O)C1(C(=O)O)CCC1.[NH2-].[NH2-].[Pt+2] [Carboplatin] . Reported normalised viability?
Reply text: 103

----------
# System: BT-474
# Procedure text: normalised viability (% of control), CellTiter-Blue; higher = more viable cells (about 100 = DMSO control)
# Measurement parameters: 10000 nM; incubation time: 72 h
Quantity measured: normalised viability (%)
Write the value in % as a bare number.

* C[C@H]1C[C@@H]2[C@H]([C@@H](O)C[C@@]3(C)[C@H]2CC[C@]3(O)C(=O)CO)[C@@]2(C)C=CC(=O)C=C12 | 112
* COc1cc2nccc(Oc3ccc(NC(=O)Nc4cc(C)on4)c(Cl)c3)c2cc1OC | 62.8
* CC[C@H](Nc1ncnc2[nH]cnc12)c1nc2cccc(F)c2c(=O)n1-c1ccccc1 | 90.9

Inquiry: Please report the recorded normalised viability for Nc1ccccc1NC(=O)c1ccc(CNC(=O)OCc2cccnc2)cc1 .
Reply text: 31.9

----------
# System: BT-549
# Procedure text: normalised viability (% of control), CellTiter-Blue; higher = more viable cells (about 100 = DMSO control)
# Measurement parameters: 1000 nM; incubation time: 72 h
Below: a set of entries, each annotated with reported normalised viability.
Express it in %; write the number only.

Worked examples, 5 molecules total:
• O=C(O)C1(C(=O)O)CCC1.[NH2-].[NH2-].[Pt+2] [Carboplatin] = 92
• Nc1nc2[nH]cc(CCc3ccc(C(=O)N[C@@H](CCC(=O)O)C(=O)O)cc3)c2c(=O)[nH]1 [Pemetrexed] = 90.7
• CCc1cncnc1N1CCN(Cc2nc3ccc(C(F)(F)F)cc3[nH]2)CC1 = 102
• Cc1cnc(NC(=O)Nc2cc(Br)c(C)cc2OC[C@@H]2CNCCO2)cn1 = 92
• Cc1ccc(-c2cc(C(F)(F)F)nn2-c2ccc(S(N)(=O)=O)cc2)cc1 [Celecoxib] = 106

Inquiry: What value of normalised viability has been reported for the following molecule? O=C(Cc1ccc(-c2ccc(OCCN3CCOCC3)cc2)cn1)NCc1ccccc1 [KX2-391]
Reply text: 17.5

Inquiry: Consider the molecule CC1=C(/C=C/C(C)=C/C=C/C(C)=C/C(=O)O)C(C)(C)CCC1 [Tretinoin] and give its measured normalised viability.
Reply text: 100

Inquiry: Requested field: normalised viability. Item: NCCCNCCSP(=O)(O)O [Amifostine]
Reply text: 96.6

Inquiry: Return reported normalised viability; argument: CCCS(=O)(=O)Nc1ccc(F)c(C(=O)c2c[nH]c3ncc(-c4ccc(Cl)cc4)cc23)c1F [Vemurafenib]
Reply text: 105

----------
# System: BT-474
# Procedure text: normalised response (% of control), CellTiter-Glo; higher = more viable cells (100 = DMSO, 0 = benzethonium chloride kill control)
# Measurement parameters: incubation time: 72 h
Quantity measured: normalised response (%)
Express your answer in %, writing the number without its unit.

* Cc1ccc(-c2cc(C(F)(F)F)nn2-c2ccc(S(N)(=O)=O)cc2)cc1 [Celecoxib] (10000 nM) | 92.9

Inquiry: Report normalised response for Nc1nc2[nH]cc(CCc3ccc(C(=O)N[C@@H](CCC(=O)O)C(=O)O)cc3)c2c(=O)[nH]1 [Pemetrexed] (10000 nM) tested on BT-474.
Reply text: 39

Inquiry: Lab request: please report normalised response under test system BT-474 for CC[C@@H]1C(=O)N(C)c2cnc(Nc3ccc(C(=O)NC4CCN(C)CC4)cc3OC)nc2N1C1CCCC1 [BI 2536] (1000 nM)
Reply text: 75.9

Inquiry: What reported normalised response corresponds to COc1cc2c(Oc3ccc4[nH]c(C)cc4c3F)ncnc2cc1OCCCN1CCCC1 [Cediranib] (1000 nM) on BT-474?
Reply text: 104
